# ASSAY_TARGET: human Trypsin (Homo sapiens, UniProt P07477)
# EXPERIMENTAL_PROTOCOL: Selectivity screening, human serine protease trypsin
# Assay type: biochemical
# COND: at 5 μM; read-out: inhibition of human Trypsin
Where a SMILES comes first, the peptide text is derived from it. [ ]: non-standard residue; d: D form. The star is where a group is joined. Palmitoyl = CCCCCCCCCCCCCCCC(=O)*; hPhe = N[C@@H](CCc1ccccc1)C(=O)O; Phg = N[C@H](C(=O)O)c1ccccc1; β3hK = NCCCC[C@H](N)CC(=O)O
VALUE_KIND: inhibition at 5 µM

>>> observed("CCCCCCCCCCCCCCCC(=O)N[C@@H](CCCCN)C(=O)N1CCC[C@H]1C(=O)N[C@@H](Cc1cnc[nH]1)C(=O)N[C@@H](CCc1ccccc1)C(N)=O [compound 11] (Palmitoyl-KPH[hPhe]-NH2)")
"< 10%"
>>> observed("CCCCCCCCCCCCCCCC(=O)N[C@@H](CCCCC(=N)N)C(=O)N[C@@H](Cc1c[nH]cn1)C(N)=O")
"< 10%"
>>> observed("CCCCCCCCCCCCCCCC(=O)N[C@@H](CCCCN)CC(=O)N1CCC[C@H]1C(=O)N[C@@H](C)C(=O)N[C@@H](Cc1ccccc1)C(N)=O [compound 116] (Palmitoyl-[β3hK]PAF-NH2)")
"< 10%"
>>> observed("CCCCCCCCCCCCCCCC(=O)N[C@@H](CCCCN)C(=O)N1CCC[C@H]1C(=O)N[C@H](C(=O)N[C@@H](CCCCN)C(N)=O)c1ccccc1 [compound 13] (Palmitoyl-KP[Phg]K-NH2)")
"< 10%"
>>> observed("CCCCCCCCCCCCCCCC(=O)N[C@@H](CCCCN)C(=O)N[C@@H](C)C(=O)N[C@@H](C)C(=O)N[C@H](Cc1c[nH]cn1)C(N)=O [compound 171] (Palmitoyl-KAA[dH]-NH2)")
"< 10%"
